# Tested on: B6C3F1 mice, B16 melanoma ip, median survival T/C
# method_description: NCI In Vivo Anticancer Drug Screen. Data for tumor model B16 Melanoma (intraperitoneal) in B6C3F1 mice
# protocol_conditions: endpoint: median survival time; dose: 3.12 mg/kg/injection; schedule: Q01DX009 (ip); vehicle: saline with Tween-80; higher = longer survival
# Procedure: The antitumor activity of compounds was measured in mice bearing transplantable tumors. Survival or tumor size were measured and the results are expressed as the measurement made in the treated group (T) divided by the measurement made in the vehicle treated control group (C). The tumor model used in this assay is B16 Melanoma (intraperitoneal) in B6C3F1 mice
Toxic doses and inconclusive results are not listed.
Parameter: T/C. Scope: all listed entries.
attribute_measured: T/C

compound	test_system	readout_value
CC(C)N1C(=O)C=C(c2ccc([N+](=O)[O-])cc2)C1=O	B6C3F1 mice, B16 melanoma ip, median survival T/C	104 % of control
OC1COC(c2ccccc2)OC1C1OC(c2ccccc2)OC2COC(c3ccccc3)OC21 (centres undefined)	B6C3F1 mice, B16 melanoma ip, median survival T/C	93 % of control
CCc1nc(N)nc(N)c1-c1ccc(Cl)c([N+](=O)[O-])c1	B6C3F1 mice, B16 melanoma ip, median survival T/C	105 % of control
CC(=O)Nc1ccc(Nc2ccc(C(=C3C=CC(=[N+](C)CCC#N)C=C3)c3ccc(N(C)CCC#N)cc3)cc2)cc1	B6C3F1 mice, B16 melanoma ip, median survival T/C	105 % of control
